- System: HPK1
- measurement.conditions: concentration: 1 μM,replicates: in singlicate; n = 1;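 note: KINOMEscan kinase panel screen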
endpoint.name: %Inh (%)

- compound: "Cc1nnc(-c2ccc3occ(-c4ccc(S(C)=O)cc4)c3n2)o1 (stereo not shown)"
  endpoint.name: "%Inh"
  recorded.result: 0
- compound: "CNC(=O)c1ccccc1Nc1nc(Nc2cccc(CS(C)(=O)=O)c2)ncc1C.O=CO"
  endpoint.name: "%Inh"
  recorded.result: 96.8
- compound: "CCOC(=O)N1CCC(n2cnc(-c3ccc(F)cc3)c2-c2ccnc(N)n2)CC1"
  endpoint.name: "%Inh"
  recorded.result: 5
- compound: "CCNCC(Cc1ccccc1)NC(=O)c1cc(Br)c(-c2ccnc3[nH]ccc23)s1.Cl.Cl (stereo not shown)"
  endpoint.name: "%Inh"
  recorded.result: 51

* * *

- System: p38-delta
- measurement.conditions: concentration: 1 μM,replicates: in singlicate; n = 1
Please mark t if the recorded %Inh is equal to or greater than 20%, and f if it falls below.

- molecule: "CS(=O)(=O)Nc1ccc(-c2ccnc3[nH]ccc23)cc1"
  class.assignment: "t"
- molecule: "COC(=O)c1cccc(NC(=O)NC2CCN(c3ccnc(Nc4cc(OC)c(OC)c(OC)c4)n3)C2)c1 (stereo not shown)"
  class.assignment: "t"
- molecule: "Cc1cccc2c(-c3ccncc3)c(-c3ccc(F)cc3)nn12.Cl"
  class.assignment: "t"
- molecule: "Nc1nccc(-c2ccc3c(N)n[nH]c3c2)n1"
  class.assignment: "t"
- molecule: "O=C(NCC1CC1)c1ccc(-c2cc(C(=O)NC3CC3)ccc2F)cc1"
  class.assignment: "f"
- molecule: "N#Cc1cccc(C(=O)NC2CCN(c3ccnc(Nc4ccc(F)cc4)n3)C2)c1 (stereo not shown)"
  class.assignment: "t"
- molecule: "O=C(Nc1cccc(Oc2ccc3nccn3n2)c1)Nc1cccc(C(F)(F)F)c1"
  class.assignment: "f"

* * *

Overview of reported %Inh across a group of compounds:
- Tested on: HUNK
- measurement.conditions: concentration: 1 μM,replicates: in singlicate; n = 1

- compound: "CN1CCN(CCCNc2nccc(-c3c(-c4ccc(F)cc4)nn4cc(C(N)=O)ccc34)n2)CC1 [GW622475]"
  %Inh: "6%"
- compound: "Cn1ccc2ncnc(Oc3ccc(NC(=O)Nc4cc(C(C)(C)C)on4)c(Cl)c3)c21"
  %Inh: "2%"
- compound: "CN(c1ccccc1CNc1nc(Nc2ccc3c(c2)CC(=O)N3)ncc1C(F)(F)F)S(C)(=O)=O"
  %Inh: "0%"
- compound: "O=C(NOCC1CC1)c1cc(Br)c(F)c(F)c1Nc1ccc(I)cc1Cl"
  %Inh: "8%"

* * *

- System: CSNK1E
- measurement.conditions: concentration: 1 μM,replicates: in singlicate; n = 1
endpoint.name: %Inh

- compound: "C[C@@H]1CNc2c(sc3ccc4nc(-c5ccc(O)cc5)ccc4c23)C(=O)N1"
  endpoint.name: "%Inh"
  recorded.result: "55%"
- compound: "COc1cc2c(Nc3ccc(NC(=O)c4ccccc4)cc3)ncnc2cc1OCCCN1CCOCC1"
  endpoint.name: "%Inh"
  recorded.result: "59%"
- compound: "N#Cc1cccc(C(=O)NC2CCN(c3ccnc(Nc4ccc(F)cc4)n3)C2)c1 (centres unmarked)"
  endpoint.name: "%Inh"
  recorded.result: "1%"
- compound: "Cn1ccc2ncnc(Oc3ccc(NC(=O)Nc4cncc(C(F)(F)F)c4)c(Cl)c3)c21"
  endpoint.name: "%Inh"
  recorded.result: "0%"
- compound: "Cl.c1ccc(Oc2ccc(Nc3ccnc4cc(-c5ccc(CN6CCNCC6)o5)ccc34)cc2)nc1"
  endpoint.name: "%Inh"
  recorded.result: "40%"
- compound: "CC(=O)c1c(-c2ccncc2)[nH]c(-c2ccncc2)c1C"
  endpoint.name: "%Inh"
  recorded.result: "90%"
- compound: "COc1cccc(CNC(=O)NC2CCN(c3ccnc(Nc4cc(OC)c(OC)c(OC)c4)n3)C2)c1 (centres unmarked)"
  endpoint.name: "%Inh"
  recorded.result: "18%"
- compound: "O=c1[nH]cc(-c2ccc(O)cc2)c2sc(-c3ccncc3)cc12"
  endpoint.name: "%Inh"
  recorded.result: "46%"
- compound: "COc1cc(Nc2nccc(N3CCC(NC(=O)c4cccc(C#N)c4)C3)n2)cc(OC)c1OC (centres unmarked)"
  endpoint.name: "%Inh"
  recorded.result: "8%"
- compound: "CCn1c(-c2nonc2N)nc2cncc(Br)c21"
  endpoint.name: "%Inh"
  recorded.result: "19%"
- compound: "Cc1cccc2c(-c3ccncc3)c(-c3ccc(F)cc3)nn12.Cl"
  endpoint.name: "%Inh"
  recorded.result: "84%"
- compound: "COC(=O)c1cccc(NC(=O)NC2CCN(c3ccnc(Nc4cc(OC)c(OC)c(OC)c4)n3)C2)c1 (centres unmarked)"
  endpoint.name: "%Inh"
  recorded.result: "13%"
- compound: "O=C1NCCc2[nH]c(-c3ccncc3)cc21"
  endpoint.name: "%Inh"
  recorded.result: "98.1%"
- compound: "CCN1CCN(CCCC(=O)Nc2n[nH]c3nc(-c4ccc(O)cc4)c(Br)cc23)CC1"
  endpoint.name: "%Inh"
  recorded.result: "0%"
- compound: "CS(=O)(=O)Nc1ccc(-c2ccnc3[nH]ccc23)cc1"
  endpoint.name: "%Inh"
  recorded.result: "33%"
- compound: "Nc1nccc(-c2ccc3c(N)n[nH]c3c2)n1"
  endpoint.name: "%Inh"
  recorded.result: "29%"
- compound: "C[C@@H]1CNc2c(sc3ccc4nc(-c5ccncc5)ccc4c23)C(=O)N1"
  endpoint.name: "%Inh"
  recorded.result: "29%"

* * *

Overview of reported %Inh across a group of molecules:
- System: GSK3B
- measurement.conditions: concentration: 1 μM,replicates: in singlicate; n = 1
endpoint.name: %Inh (%)

- molecule: "CCOC(=O)N1CCC(n2cnc(-c3ccc(F)cc3)c2-c2ccnc(N)n2)CC1 [SB-219952]"
  endpoint.name: "%Inh"
  recorded.result: 37
- molecule: "Cn1ccc2ncnc(Oc3ccc(NC(=O)Nc4cccc(C(F)(F)F)c4)c(F)c3)c21"
  endpoint.name: "%Inh"
  recorded.result: 7
- molecule: "CC(C)c1nc(-c2cccc(NS(=O)(=O)c3ccccc3)c2)c(-c2ccnc(Nc3ccc4c(c3)CN(C)CC4)n2)s1 [GSK1649598]"
  endpoint.name: "%Inh"
  recorded.result: 24
- molecule: "CCNCC(Cc1ccccc1)NC(=O)c1cc(Br)c(-c2ccnc3[nH]ccc23)s1.Cl.Cl (centres unmarked) [GSK1383280]"
  endpoint.name: "%Inh"
  recorded.result: 14
- molecule: "CS(=O)(=O)Nc1ccc(-c2ccnc3[nH]ccc23)cc1 [GSK993273]"
  endpoint.name: "%Inh"
  recorded.result: 17
- molecule: "N#Cc1cccc(C(=O)NC2CCN(c3ccnc(Nc4ccc(F)cc4)n3)C2)c1 (centres unmarked) [GSK1379708]"
  endpoint.name: "%Inh"
  recorded.result: 0
- molecule: "COC(=O)c1cccc(NC(=O)NC2CCN(c3ccnc(NCc4ccc(F)cc4)n3)CC2)c1 [GSK1379860]"
  endpoint.name: "%Inh"
  recorded.result: 8
- molecule: "CN(c1cccc(CNc2nc(Nc3ccc4c(c3)CC(=O)N4)ncc2C(F)(F)F)c1)S(C)(=O)=O"
  endpoint.name: "%Inh"
  recorded.result: 0

* * *

- Tested on: TLK2
- measurement.conditions: concentration: 1 μM,replicates: in singlicate; n = 1
endpoint.name: %Inh (%)

- compound: "O=C(Nc1n[nH]c2cc(-c3ccco3)ccc12)C1CC1"
  study.target: "TLK2"
  recorded.result: 0
- compound: "CC(=O)Nc1nc2cnc(Nc3cc(NC(=O)c4cccc(CC(C)(C)C#N)c4)ccc3C)nc2s1"
  study.target: "TLK2"
  recorded.result: 0
- compound: "Cc1ccc2c(-c3ccnc(Nc4ccc(C(F)(F)F)cc4)n3)cnn2n1"
  study.target: "TLK2"
  recorded.result: 17
- compound: "C[C@@H](Oc1cc(-n2cnc3cc(-c4ccncc4)ccc32)sc1C(N)=O)c1ccccc1Cl"
  study.target: "TLK2"
  recorded.result: 0
- compound: "COc1cccc(CNC(=O)NC2CCN(c3ccnc(Nc4cc(OC)c(OC)c(OC)c4)n3)C2)c1 (centres unmarked)"
  study.target: "TLK2"
  recorded.result: 0
- compound: "CC(=O)c1c(-c2ccncc2)[nH]c(-c2ccncc2)c1C"
  study.target: "TLK2"
  recorded.result: 0
- compound: "O=C(Nc1ccccc1)c1cccc(Oc2ccc3nccn3n2)c1"
  study.target: "TLK2"
  recorded.result: 0
- compound: "CCn1c(-c2nonc2N)nc2cncc(Br)c21"
  study.target: "TLK2"
  recorded.result: 6
- compound: "CCN1CCN(CCCC(=O)Nc2n[nH]c3nc(-c4ccc(O)cc4)c(Br)cc23)CC1"
  study.target: "TLK2"
  recorded.result: 0
- compound: "CCNCC(Cc1ccccc1)NC(=O)c1cc(Br)c(-c2ccnc3[nH]ccc23)s1.Cl.Cl (centres unmarked)"
  study.target: "TLK2"
  recorded.result: 16
- compound: "C[C@@H](Oc1cc(-n2cnc3cc(-c4cnn(C)c4)ccc32)sc1C(N)=O)c1ccccc1Cl"
  study.target: "TLK2"
  recorded.result: 0
- compound: "O=C(NCC1CC1)c1ccc(-c2cc(C(=O)NC3CC3)ccc2F)cc1"
  study.target: "TLK2"
  recorded.result: 0
- compound: "O=C(Nc1ccc(Oc2ccc3nc(NC(=O)C4CC4)cn3n2)c(F)c1)c1cccn(-c2ccccc2)c1=O"
  study.target: "TLK2"
  recorded.result: 0
- compound: "CN(c1ccc2c(c1)nc(NCc1ccc(F)cc1)n2C)c1ccnc(Nc2ccc(CS(C)(=O)=O)cc2)n1.Cl"
  study.target: "TLK2"
  recorded.result: 10
- compound: "COc1cc2c(Nc3ccc(NC(=O)c4ccccc4)cc3)ncnc2cc1OCCCN1CCOCC1"
  study.target: "TLK2"
  recorded.result: 0
- compound: "O=C(Nc1cccc(Oc2ccc3nccn3n2)c1)Nc1cccc(C(F)(F)F)c1"
  study.target: "TLK2"
  recorded.result: 0
- compound: "C[C@@H](Oc1cc(-n2cnc3ccc(-c4ccncc4)cc32)sc1C(N)=O)c1ccccc1Cl"
  study.target: "TLK2"
  recorded.result: 0
